The measurements presented in this section are drawn from patent US20230126447A1.

# experimental_details: Ocular tissue and plasma pharmacokinetics, 15 mg/kg single and BID oral, Dutch Belted rabbits (Example 3/5)
# Type: in vivo
# measurement_parameters: Dutch Belted, rabbit, plasma, po, 15 mg/kg, DB rabbit, 15 mg/kg BID oral, Day 15, 24 h; read-out: Mean plasma concentration
value_type: concentration at 24 h (ng/mL)
Numeric answer only, unit ng/mL assumed.

Look up concentration at 24 h: `CC(=O)c1nn(CC(=O)N2C[C@H](F)C[C@H]2C(=O)Nc2cccc(Br)n2)c2ccc(-c3cnc(C)nc3)cc12`
5.6

---

# experimental_details: Ocular tissue and plasma pharmacokinetics, 15 mg/kg single and BID oral, Dutch Belted rabbits (Example 3/5)
# Type: in vivo
# measurement_parameters: Dutch Belted, rabbit, vitreous humor, po, 15 mg/kg, Vitreous Humor, DB rabbit, 15 mg/kg single dose, Day 1
# Method: Study design including group designation and dose levels are outlined in Table 4. […] Fifteen Dutch Belted and 5 New Zealand White rabbits were used as un-dosed controls. […] The dose volume was 5 mL/kg/dose for all groups. Safety was assessed with toxicological and ophthalmic examinations including slit lamp biomicroscopy, indirect ophthalmoscopy, rebound tonometry, and ultrasonic corneal pachymetry. Analyst® software (Version 1.6.2) was used to capture the LC-MS/MS data and integrate the peak areas. […]
value_type: MRT last (h)
Kindly provide the numeric value in h only, without the unit symbol.

Entry CC(=O)c1nn(CC(=O)N2C[C@H](F)C[C@H]2C(=O)Nc2cccc(Br)n2)c2ccc(-c3cnc(C)nc3)cc12 [Compound 1] has what MRT last?
2.48

---

# experimental_details: Ocular tissue and plasma pharmacokinetics, 50 mg/kg BID oral, Dutch Belted rabbits (Example 4/5)
# Type: in vivo
# measurement_parameters: male, Dutch Belted, rabbit, plasma, po, 50 mg/kg, DB rabbit, 50 mg/kg BID oral, Day 15, 6 h; read-out: Mean plasma concentration
value_type: concentration at 6 h

May I ask what concentration at 6 h has been recorded for `CC(=O)c1nn(CC(=O)N2C[C@H](F)C[C@H]2C(=O)Nc2cccc(Br)n2)c2ccc(-c3cnc(C)nc3)cc12` ?
320 ng/mL

---

# experimental_details: Ocular tissue and plasma pharmacokinetics, 15 mg/kg single and BID oral, Dutch Belted rabbits (Example 3/5)
# Format: in vivo
# measurement_parameters: Dutch Belted, rabbit, retina, oral, 15 mg/kg, DB rabbits, Day 15, 15 mg/kg BID, 96 hr; read-out: Mean Retina Concentration
value_type: concentration at 96 h (ng/g)
Form entry: value (ng/g) — number only.

Fill in the blank: the reported concentration at 96 h of `CC(=O)c1nn(CC(=O)N2C[C@H](F)C[C@H]2C(=O)Nc2cccc(Br)n2)c2ccc(-c3cnc(C)nc3)cc12` is ____.
28.1

---

# experimental_details: Ocular tissue and plasma pharmacokinetics, 50 mg/kg BID oral, Dutch Belted rabbits (Example 4/5)
# Format: in vivo
# measurement_parameters: male, Dutch Belted, rabbit, optic nerve, po, 50 mg/kg, DB rabbit, 50 mg/kg BID oral, Day 15, 1 h; read-out: Optic Nerve concentration
value_type: concentration at 1 h (ng/g)
Give just the number in ng/g; leave the unit off.

Request the reported concentration at 1 h associated with `CC(=O)c1nn(CC(=O)N2C[C@H](F)C[C@H]2C(=O)Nc2cccc(Br)n2)c2ccc(-c3cnc(C)nc3)cc12`
1550
